Target: T1, GFP-9S library array, motif 4 ND N98W;D124S (synthetic construct, N98W;D124S)
T1 chain: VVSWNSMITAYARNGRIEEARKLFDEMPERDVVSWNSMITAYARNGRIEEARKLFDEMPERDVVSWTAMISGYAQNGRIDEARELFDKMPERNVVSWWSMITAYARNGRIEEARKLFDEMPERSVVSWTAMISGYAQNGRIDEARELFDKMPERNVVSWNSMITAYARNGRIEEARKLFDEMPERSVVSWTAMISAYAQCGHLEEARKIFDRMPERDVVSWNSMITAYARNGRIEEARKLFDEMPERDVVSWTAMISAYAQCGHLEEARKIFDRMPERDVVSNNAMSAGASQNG
Assay: high-throughput RNA pulldown from lysate on Ni-NTA beads; HRP: 50 mM Tris pH 8, 150 mM NaCl, 1 mM beta-mercaptoethanol, 50 ug/ml BSA, 3 ug/ml yeast RNA, 0.5% heparin; ITC and FP: Tris pH 8, 200 mM KCl, 5% glycerol; MST: 50 mM Tris pH 8, 200 mM NaCl, 1 mM DTT, BSA, heparin, 0.05% Tween 20
Details: tags: N-terminal His-eGFP; label: 5' Cy5
observation-type: pKd
Remember, pKd is on a log scale: it is -log10 of the molar concentration.

binder	pKd
AUUACACGUGA (ssRNA) [Cy5-rpoA]	7.05

Now look at this entry.
AUUAGACGUGA (ssRNA) [Cy5-rpoA-G] has a reported pKd of 7.10
